Reported pKi, ORD domain (OSBP-Related Domain) of the protein OSBP (Homo sapiens (Human)).
pKi: −log10 of the molar value.

| molecule | target | pKi |
| --- | --- | --- |
| COCOc1cc2oc(-c3ccccc3)cc(=O)c2c2c1C[C@H]1C(C)(C)[C@@H](O)CC[C@]1(C)O2 | ORD domain (OSBP-Related Domain) of the protein OSBP (Homo sapiens (Human)) | 5.70 to 7.00 |
| CC1(C)[C@H](O)CC[C@@]2(C)Oc3c(c(O)cc4oc(-c5ccccc5)cc(=O)c34)C[C@H]12 | ORD domain (OSBP-Related Domain) of the protein OSBP (Homo sapiens (Human)) | > 8.00 |
| COCOc1cc2oc(-c3ccccc3)cc(=O)c2c2c1C[C@@H]1C(C)(C)[C@H](OCOC)CC[C@@]1(C)O2 (racemic) | ORD domain (OSBP-Related Domain) of the protein OSBP (Homo sapiens (Human)) | 5.70 to 7.00 |
| COCOc1cc2oc(-c3ccccc3)cc(=O)c2c2c1C[C@@H]1C(C)(C)[C@H](O)CC[C@@]1(C)O2 (racemic) | ORD domain (OSBP-Related Domain) of the protein OSBP (Homo sapiens (Human)) | > 8.00 |
| COCOc1ccc(-c2cc(=O)c3c4c(c(OCOC)cc3o2)C[C@@H]2C(C)(C)[C@H](O)CC[C@@]2(C)O4)cc1 | ORD domain (OSBP-Related Domain) of the protein OSBP (Homo sapiens (Human)) | 7.00 to 8.00 |
| CC1(C)[C@H](O)CC[C@@]2(C)Oc3c(c(O)cc4oc(-c5ccccc5)cc(=O)c34)C[C@H]12 (racemic) | ORD domain (OSBP-Related Domain) of the protein OSBP (Homo sapiens (Human)) | > 8.00 |
| CC1(C)[C@@H](O)CC[C@]2(C)Oc3c(c(O)cc4oc(-c5ccccc5)cc(=O)c34)C[C@@H]12 | ORD domain (OSBP-Related Domain) of the protein OSBP (Homo sapiens (Human)) | > 8.00 |
| COCOc1cc2oc(-c3ccccc3)cc(=O)c2c2c1C[C@@H]1C(C)(C)[C@H](O)CC[C@@]1(C)O2 | ORD domain (OSBP-Related Domain) of the protein OSBP (Homo sapiens (Human)) | 7.00 to 8.00 |
